Target: Proteasome Macropain subunit MB1 (Homo sapiens, UniProt P28074)
Sequence (P28074 whole entry): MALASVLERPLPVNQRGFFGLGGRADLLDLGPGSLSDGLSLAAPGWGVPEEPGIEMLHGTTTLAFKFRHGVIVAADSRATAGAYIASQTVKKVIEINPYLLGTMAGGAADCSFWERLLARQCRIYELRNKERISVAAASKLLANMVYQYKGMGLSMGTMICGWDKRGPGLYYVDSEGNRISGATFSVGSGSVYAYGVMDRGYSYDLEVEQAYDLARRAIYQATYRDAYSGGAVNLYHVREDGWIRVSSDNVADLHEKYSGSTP
Assay: Inhibition of chymotrypsin-like activity of human 26S proteasome in human Jurkat cells assessed as decrease in AMC hydrolysis using Z-Gly-Gly-Leu-AMC as substrate after 24 hrs by fluorescence based method
Assay type: cell-based
Attribute measured: IC50 (µM)
Write it as a number; the unit µM goes unstated.

[
  {
    "Compound": "O=c1cc(-c2ccc(O)c(O)c2)oc2cc(O)cc(O)c12 [LUTEOLIN]",
    "IC50, µM": 1.3
  }
]

# assay system Proteasome Macropain subunit MB1 (Homo sapiens, UniProt P28074): give IC50 of O=c1cc(-c2ccccc2)oc2cc(O)cc(O)c12 [CHRYSIN]
6.1

Fetch value of IC50 on Proteasome Macropain subunit MB1 (Homo sapiens, UniProt P28074) for O=c1c(O)c(-c2ccc(O)cc2)oc2cc(O)cc(O)c12 [KAEMPFEROL] .
11

Report the value of IC50 obtained on Proteasome Macropain subunit MB1 (Homo sapiens, UniProt P28074) for O=c1c(O)c(-c2cc(O)c(O)c(O)c2)oc2cc(O)cc(O)c12 [MYRICETIN] .
12

// fetch IC50; item: O=C1C[C@@H](c2ccc(O)cc2)Oc2cc(O)cc(O)c21 [NARINGENIN] ; system: Proteasome Macropain subunit MB1 (Homo sapiens, UniProt P28074)
41.6

System Proteasome Macropain subunit MB1 (Homo sapiens, UniProt P28074). Read-out IC50. Item O=C1C[C@@H](c2ccc(O)c(O)c2)Oc2cc(O)cc(O)c21 [ERIODICTYOL] . Report value.
14.6

Report IC50 under test system Proteasome Macropain subunit MB1 (Homo sapiens, UniProt P28074) for O=c1c(O)c(-c2ccc(O)c(O)c2)oc2cc(O)cc(O)c12 [QUERCETIN] .
2
